System: Lolium multiflorum
Assay: Pre-emergence herbicidal effect
Format: in vivo
Settings: Dosage 320 g/ha, visual scoring after 3 weeks vs untreated controls, 100% = plants have died
reported property: Pre-emergence herbicidal effect LOLMU (%)
Kindly answer with a numeric value in %, unit omitted.

Look over these answered cases.
CC[C@H]1Cc2ccc(C)cc2[C@@H]1Nc1nc(C)c(C#N)c(N)n1: 100
Cc1ccc2c(c1)[C@H](Nc1nc(N)cc(Cl)n1)[C@@H](C)C2: 95
N#Cc1cnc(N[C@@H]2CCCc3ccccc32)nc1N: 100
Cc1ccc2c(c1)[C@H](Nc1ncc(C#N)c(N)n1)[C@@H](C)C2: 100
Cc1ccc2c(c1)[C@H](Nc1nc(C)c(I)c(N)n1)[C@@H](C)C2: 100

Q. I have this molecule here, `CCc1nc(N[C@@H]2CCc3ccccc32)nc(N)c1C#N` , and I need its recorded Pre-emergence herbicidal effect LOLMU.
A. 80

Q. I have this molecule here, `Nc1nc(N[C@@H]2CCCc3ccccc32)ncc1I` , and I need its recorded Pre-emergence herbicidal effect LOLMU.
A. 100

Q. I have this molecule here, `Cc1ccc2c(c1)[C@H](Nc1nc(C)c([N+](=O)[O-])c(N)n1)[C@@H](C)C2` , and I need its recorded Pre-emergence herbicidal effect LOLMU.
A. 90

Q. I have this molecule here, `Cc1ccc2c(c1)[C@H](Nc1ncc(Br)c(N)n1)[C@@H](C)C2` , and I need its recorded Pre-emergence herbicidal effect LOLMU.
A. 95

Q. I have this molecule here, `Cc1nc(N[C@@H]2CCCc3ccccc32)nc(N)c1C#N` , and I need its recorded Pre-emergence herbicidal effect LOLMU.
A. 100

Q. I have this molecule here, `Cc1ccc2c(c1)[C@H](Nc1ncc(C)c(N)n1)[C@@H](C)C2` , and I need its recorded Pre-emergence herbicidal effect LOLMU.
A. 100

Q. I have this molecule here, `CC[C@H]1Cc2ccccc2[C@@H]1Nc1ncc(C#N)c(N)n1` , and I need its recorded Pre-emergence herbicidal effect LOLMU.
A. 100

Q. I have this molecule here, Cc1nc(NC2CCOc3ccccc32)nc(N)c1[N+](=O)[O-] (racemic) , and I need its recorded Pre-emergence herbicidal effect LOLMU.
A. 90

Q. I have this molecule here, `Cc1ccc2c(c1)[C@H](Nc1nc(N)c(C#N)c(C3(c4ccc(Cl)cc4Cl)CC3)n1)[C@@H](C)C2` , and I need its recorded Pre-emergence herbicidal effect LOLMU.
A. 80

Q. I have this molecule here, `Cc1nc(N[C@@H]2CCOc3c(F)cccc32)nc(N)c1C#N` , and I need its recorded Pre-emergence herbicidal effect LOLMU.
A. 100

Q. I have this molecule here, `Cc1ccc2c(c1)[C@H](Nc1ncc(F)c(N)n1)[C@@H](C)C2` , and I need its recorded Pre-emergence herbicidal effect LOLMU.
A. 100

Q. I have this molecule here, `Nc1nc(N[C@@H]2CCCc3ccccc32)ncc1Cl` , and I need its recorded Pre-emergence herbicidal effect LOLMU.
A. 100

Q. I have this molecule here, `Cc1ccc2c(c1)[C@H](Nc1ncc(Cl)c(N)n1)[C@@H](C)C2` , and I need its recorded Pre-emergence herbicidal effect LOLMU.
A. 100

* * *

Test system: Stellaria media
Test: Post-emergence herbicidal effect
Assay type: in vivo
Conditions: Dosage 320 g/ha, one-leaf stage, visual scoring after ca. 3 weeks vs untreated controls, 100% = plants have died
reported property: Post-emergence herbicidal effect STEME
The reply should read as a number followed by its unit.

Look over these answered cases.
Nc1nc(N[C@@H]2CCCc3ccccc32)ncc1Br: 80%
Nc1nc(N[C@@H]2CCCc3ccccc32)ncc1I: 95%
CCc1nc(N[C@@H]2CCc3ccccc32)nc(N)c1C#N: 80%
CCc1nc(N[C@@H]2CCCc3ccccc32)nc(N)c1C#N: 80%
Cc1ccc2c(c1)[C@H](Nc1ncc(Cl)c(N)n1)[C@@H](C)C2: 90%

Q. I have this compound here, `CC[C@H]1Cc2ccccc2[C@@H]1Nc1ncc(C#N)c(N)n1` , and I need its recorded Post-emergence herbicidal effect STEME.
A. 90%

Q. I have this compound here, `Cc1ccc2c(c1)[C@H](Nc1ncc(F)c(N)n1)[C@@H](C)C2` , and I need its recorded Post-emergence herbicidal effect STEME.
A. 80%

Q. I have this compound here, `CC[C@H]1Cc2ccccc2[C@@H]1Nc1nc(C)c([N+](=O)[O-])c(N)n1` , and I need its recorded Post-emergence herbicidal effect STEME.
A. 90%

Q. I have this compound here, Cc1nc(NC2CCc3ccccc32)nc(N)c1C#N (racemic) , and I need its recorded Post-emergence herbicidal effect STEME.
A. 100%

* * *

Property: Pre-emergence herbicidal effect ALOMY; scope: individual molecules
System: Alopecurus myosuroides
Test: Pre-emergence herbicidal effect
Format: in vivo
Conditions: Dosage 320 g/ha, visual scoring after 3 weeks vs untreated controls, 100% = plants have died
Kindly answer with a numeric value in %, unit omitted.

Look over these answered cases.
Cc1ccc2c(c1)[C@H](Nc1ncc(C#N)c(N)n1)[C@@H](C)C2: 100
Cc1nc(NC2CCOc3ccccc32)nc(N)c1[N+](=O)[O-] (racemic): 80
Cc1ccc2c(c1)[C@H](Nc1nc(C)c([N+](=O)[O-])c(N)n1)[C@@H](C)C2: 100
CCc1nc(N[C@@H]2CCCc3ccccc32)nc(N)c1C#N: 100

Q. I have this molecule here, `Cc1ccc2c(c1)[C@H](Nc1ncc(Br)c(N)n1)[C@@H](C)C2` , and I need its recorded Pre-emergence herbicidal effect ALOMY.
A. 95

Q. I have this molecule here, `Cc1ccc2c(c1)[C@H](Nc1ncc(Cl)c(N)n1)[C@@H](C)C2` , and I need its recorded Pre-emergence herbicidal effect ALOMY.
A. 100

* * *

System: Alopecurus myosuroides
Assay: Pre-emergence herbicidal effect
Format: in vivo
Settings: Dosage 320 g/ha, visual scoring after 3 weeks vs untreated controls, 100% = plants have died
Property: Pre-emergence herbicidal effect ALOMY; scope: individual compounds
Kindly answer with a numeric value in %, unit omitted.

Q. I have this compound here, `Cc1ccc2c(c1)[C@H](Nc1ncc(F)c(N)n1)[C@@H](C)C2` , and I need its recorded Pre-emergence herbicidal effect ALOMY.
A. 100

Q. I have this compound here, `CC[C@H]1Cc2ccc(C)cc2[C@@H]1Nc1nc(C)c(C#N)c(N)n1` , and I need its recorded Pre-emergence herbicidal effect ALOMY.
A. 100

Q. I have this compound here, Cc1nc(NC2c3ccccc3CC2C)nc(N)c1[N+](=O)[O-] (racemic) , and I need its recorded Pre-emergence herbicidal effect ALOMY.
A. 80

Q. I have this compound here, `Cc1nc(N[C@@H]2CCCc3ccccc32)nc(N)c1C#N` , and I need its recorded Pre-emergence herbicidal effect ALOMY.
A. 100

Q. I have this compound here, `Cc1ccc2c(c1)[C@H](Nc1nc(N)c(C#N)c(C3(c4ccc(Cl)cc4Cl)CC3)n1)[C@@H](C)C2` , and I need its recorded Pre-emergence herbicidal effect ALOMY.
A. 80

* * *

Property: Post-emergence herbicidal effect AVEFA; scope: individual compounds
System: Avena fatua
Experiment: Post-emergence herbicidal effect
Type: in vivo
Details: Dosage 320 g/ha, one-leaf stage, visual scoring after ca. 3 weeks vs untreated controls, 100% = plants have died
Kindly answer with a numeric value in %, unit omitted.

Look over these answered cases.
CC[C@H]1Cc2ccccc2[C@@H]1Nc1ncc(C#N)c(N)n1: 80
N#Cc1cnc(N[C@@H]2CCCc3ccccc32)nc1N: 100
Cc1ccc2c(c1)[C@H](Nc1ncc(F)c(N)n1)[C@@H](C)C2: 80
Cc1ccc2c(c1)[C@H](Nc1ncc(C#N)c(N)n1)[C@@H](C)C2: 95

Q. I have this compound here, `Cc1ccc2c(c1)[C@H](Nc1nc(C)c(C#N)c(N)n1)[C@@H](C)C2` , and I need its recorded Post-emergence herbicidal effect AVEFA.
A. 80

Q. I have this compound here, `Cc1ccc2c(c1)[C@H](Nc1ncc(Cl)c(N)n1)[C@@H](C)C2` , and I need its recorded Post-emergence herbicidal effect AVEFA.
A. 90

* * *

Tested on: Alopecurus myosuroides
Experiment: Post-emergence herbicidal effect
Assay type: in vivo
Conditions: Dosage 320 g/ha, one-leaf stage, visual scoring after ca. 3 weeks vs untreated controls, 100% = plants have died
reported property: Post-emergence herbicidal effect ALOMY (%)
Kindly answer with a numeric value in %, unit omitted.

Cc1nc(N[C@@H]2CCOc3c(F)cccc32)nc(N)c1C#N: 85

Q. I have this molecule here, `Cc1ccc2c(c1)[C@H](Nc1ncc(F)c(N)n1)[C@@H](C)C2` , and I need its recorded Post-emergence herbicidal effect ALOMY.
A. 85

Q. I have this molecule here, `CCc1nc(N[C@@H]2CCc3ccccc32)nc(N)c1C#N` , and I need its recorded Post-emergence herbicidal effect ALOMY.
A. 80

* * *

Test system: Setaria viridis
Test: Post-emergence herbicidal effect
Type: in vivo
Details: Dosage 320 g/ha, one-leaf stage, visual scoring after ca. 3 weeks vs untreated controls, 100% = plants have died
Source text: The following abbreviations are used in the tables below: [table] 2. […] After ca. 3 weeks' standing time of the test plants in the greenhouse under optimum growth conditions, the effect of the preparations is scored visually in comparison with untreated controls (herbicidal effect in percent (%): 100% effect=plants have died, 0% effect=as control plants).
reported property: Post-emergence herbicidal effect SETVI (%)
Kindly answer with a numeric value in %, unit omitted.

Look over these answered cases.
Cc1ccc2c(c1)[C@H](Nc1ncc(C#N)c(N)n1)[C@@H](C)C2: 95
CCc1nc(N[C@@H]2CCCc3ccccc32)nc(N)c1C#N: 80
Cc1nc(NC2c3ccccc3CC2C)nc(N)c1C#N (racemic): 90
Cc1ccc2c(c1)[C@H](Nc1ncc(F)c(N)n1)[C@@H](C)C2: 80
CC[C@H]1Cc2ccc(C)cc2[C@@H]1Nc1nc(C)c(C#N)c(N)n1: 85

Q. Enter reported Post-emergence herbicidal effect SETVI observed with Setaria viridis for `Cc1ccc2c(c1)[C@H](Nc1nc(C)c(I)c(N)n1)[C@@H](C)C2`
A. 90
